experiment: NCI Yeast Anticancer Drug Screen. Data for the mec2-1 strain (AID 157); details: S. cerevisiae mec2-1 strain, at 50.0 µM, hits give high values
This is part of a sample that, as a whole, favours compounds with a hit. Of some 79,000 tested, about 15% had one in any assay.

Molecule: Clc1nc(C(Cl)Cl)nc2sc3c(c12)CCCC3
Unit Annotation: %
growth inhibition: 89.3
//
Molecule: CCOC(=O)CNC(=O)c1[nH]cnc1/N=N/N(C)C
Unit Annotation: %
growth inhibition: 90.3
//
Molecule: CC(=O)N1C(=O)/C(=C\C(=O)c2ccc(Cl)cc2)c2ccccc21
Unit Annotation: %
growth inhibition: 87.4
//
Molecule: CC1=CCCC2C1(C)CCC(C)C2(C)Cc1cc(O)ccc1O (centres undefined)
Unit Annotation: %
growth inhibition: 90.6
//
Molecule: CC(C)(C)c1ccc(O)c(C(c2ccc([N+](=O)[O-])cc2)c2cc(C(C)(C)C)ccc2O)c1
Unit Annotation: %
growth inhibition: 89
//
Molecule: Cc1cc(C(C)(C)CC(C)(C)C)cc(O)c1O
Unit Annotation: %
growth inhibition: 91.9
//
Molecule: CCN1/C(=C/c2ccc3ccccc3[n+]2CC)C=Cc2ccccc21
Unit Annotation: %
growth inhibition: 92
//
Molecule: CCN(CC)CC(O)c1cc(-c2ccc(Cl)cc2)nc2c(-c3ccccc3)cccc12 (centres undefined)
Unit Annotation: %
growth inhibition: 87.9
//
Molecule: CCOC(=O)C1=C(C)NC(C)=C(C(=O)OCC)C1c1ccccc1Cl
Unit Annotation: %
growth inhibition: 91.7

###

test: NCI Yeast Anticancer Drug Screen. Data for the rad18 strain (AID 177); conditions: S. cerevisiae rad18 mutant growth inhibition; at 11.0 µM; hits give high values
The panel holds about 79,000 compounds, 15% with a hit somewhere; the sample as a whole holds those more often.
Quantity Measured: growth inhibition (%)

Compound: CC(=O)[C@]1(O)Cc2c(O)c3c(c(O)c2[C@@H](OC2CC(N)C(O)C(C)O2)C1)C(=O)c1c(OCc2ccccc2)cccc1C3=O (some centres undefined)
Unit Annotation: %
Number: 9

Compound: CC(=O)Oc1ccc(C(=O)c2ccccc2)c(O)c1
Unit Annotation: %
Number: 17

Compound: S=C1SCN(CCc2ccccc2)CN1CCc1ccccc1
Unit Annotation: %
Number: 47

Compound: Cc1c2cc[n+](CCN3CCCCC3)cc2c(C)c2c1[nH]c1ccc(O)cc12
Unit Annotation: %
Number: -4

Compound: Cc1ccc(S(=O)(=O)Nc2ccc3c(c2)C(O)c2ccccc2-3)cc1 (centres undefined)
Unit Annotation: %
Number: -4

Compound: Cn1c2nc3ccccc3c-2nc2ccccc21
Unit Annotation: %
Number: 90

Compound: CCC(=O)N(c1ccccc1)C(C)CN1CCC(O)(c2cccc(C(F)(F)F)c2)CC1 (centres undefined)
Unit Annotation: %
Number: 25

Compound: O=C(Nc1ccc2c(c1)Cc1c-2ccc([N+](=O)[O-])c1F)C(F)(F)F
Unit Annotation: %
Number: -25

Compound: COc1cccc(C(c2cc3c(cc2O)OCO3)N2CCOCC2)c1OC (centres undefined)
Unit Annotation: %
Number: 4

Compound: O=C(NCCCCCN1CCC2(CCCCC2)CC1)C(C1CCCCC1)C1CCCCC1
Unit Annotation: %
Number: 69

Compound: OCCNCCOc1ccc(/C(=C(/Cl)c2ccccc2)c2ccccc2)cc1
Unit Annotation: %
Number: 24

Compound: S=c1nc(Cl)cc2[nH]c(Cl)cn12
Unit Annotation: %
Number: 14

Compound: COc1ccc(/C(C#N)=C/c2ccc(OC)c(OC)c2)cc1
Unit Annotation: %
Number: -13

Compound: O=C(NC(=S)Nc1ccccn1)c1ccccc1
Unit Annotation: %
Number: -29

Compound: CN(Cc1cnc2nc(N)nc(N)c2n1)c1ccc(C(=O)NC(CCC(=O)O)C(=O)O)c2ccccc12 (centres undefined)
Unit Annotation: %
Number: 38

Compound: CC(=O)C1(O)Cc2c(O)c3c(c(O)c2C(OC2CC(N)C(O)C(C)O2)C1)C(=O)c1ccccc1C3=O (centres undefined)
Unit Annotation: %
Number: 94

Compound: OC(CN1CCCCC1)c1cc(Cl)c(Cl)c(Cl)c1 (centres undefined)
Unit Annotation: %
Number: 8

Compound: Cc1cc(N=C2C=CC(=[N+](C)C)C=C2)c(N)cc1N
Unit Annotation: %
Number: 7

Compound: CCCCCCCCCCCCCCCCCCNC(=S)/N=C\C1=C(O)c2ccccc2C1=O
Unit Annotation: %
Number: 22

Compound: CN(C)c1ccc(N=Nc2ccccn2)cc1
Unit Annotation: %
Number: -1

Compound: CCOC(=O)C1=C(C)NC(C)=C(C(=O)OCC)C1c1ccccc1Cl
Unit Annotation: %
Number: 20

Compound: O=NN(CCCl)C(=O)NCCCl
Unit Annotation: %
Number: 45

Compound: O=C(O)c1cccc2cccc(-c3c4ccc(=O)cc-4oc4cc(O)ccc34)c12
Unit Annotation: %
Number: 71

Compound: COC(=O)c1ccc2c(c1)Cc1ccccc1-2
Unit Annotation: %
Number: 6

Compound: C=C(CCCO)[C@@H]1CC[C@@](C)(O)[C@H]1C
Unit Annotation: %
Number: -45

Compound: N#CC(=C1C=CC(=NO)C=C1)c1ccccc1
Unit Annotation: %
Number: 99

Compound: CN(C)CCNc1cccc2sc3ccc(O)cc3c(=O)c12
Unit Annotation: %
Number: -1

Compound: CC1=CCCC2C1(C)CCC(C)C2(C)Cc1cc(O)ccc1O (centres undefined)
Unit Annotation: %
Number: 66

Compound: N#C/C(=C/N1C(=O)/C(=C/c2ccc([N+](=O)[O-])cc2)SC1=S)c1nc2ccccc2s1
Unit Annotation: %
Number: 48

###

assay: NCI Yeast Anticancer Drug Screen. Data for the mec2-1 strain (AID 157); conditions: S. cerevisiae mec2-1 strain, at 33.0 µM, hits give high values
About 79,000 compounds went through this panel and 15% of them were active in at least one assay; those are over-represented in the sample as a whole.
Assign 1.0 whenever growth inhibition does not fall below 60%; assign 0.0 whenever it does.

Compound: Cc1ccc(Nc2n[nH]c(=S)s2)cc1
Class Name: 0.0
//
Compound: COc1ccc(N2CN(C)CSC2=S)cc1
Class Name: 0.0
//
Compound: O=C1CC(=O)N(C2CCCCC2)C(=O)N1c1ccccc1S(=O)(=O)Oc1ccccc1
Class Name: 0.0
//
Compound: CN(NC(=O)/C(=C/c1ccc(O)cc1)NC(=O)c1ccccc1)c1ccnc2cc(Cl)ccc12
Class Name: 0.0
//
Compound: Cc1cccc2c1N=C(C(F)(F)F)CC2=O
Class Name: 0.0
//
Compound: Nc1ccc2c(=S)c3ccccc3[nH]c2c1
Class Name: 0.0
//
Compound: Oc1ccccc1N=Cc1ccc(Cl)cc1
Class Name: 0.0
//
Compound: CCCCC(=O)c1c(O)nc2sccn2c1=O
Class Name: 1.0
//
Compound: COc1cc(/C=C/c2sc3ccccc3[n+]2C)ccc1N(C)C
Class Name: 1.0
//
Compound: Cc1cccc(/C=N\NC(=S)N2CCCCC2)n1
Class Name: 1.0
//
Compound: CCOC(=O)C1=C(C)NC(C)=C(C(=O)OCC)C1c1ccc(C)cc1
Class Name: 1.0
//
Compound: N#C/C(=C/c1c(Cl)cccc1Cl)C(N)=O
Class Name: 0.0
//
Compound: c1ccc2c(c1)ccc1c3ccncc3ccc21
Class Name: 1.0
//
Compound: COc1cccc(C(c2cc3c(cc2O)OCO3)N2CCOCC2)c1OC (centres undefined)
Class Name: 0.0
//
Compound: N#C/C(=C/N1C(=O)/C(=C/c2ccc([N+](=O)[O-])cc2)SC1=S)c1nc2ccccc2s1
Class Name: 0.0
//
Compound: CC(=O)O[C@H]1C(=O)[C@@]2(C)[C@H]([C@H](OC(=O)c3ccccc3)[C@]3(O)C[C@H](OC(=O)[C@H](O)[C@@H](NC(=O)c4ccccc4)c4ccccc4)C(C)=C1C3(C)C)[C@]1(OC(C)=O)CO[C@@H]1C[C@@H]2O
Class Name: 0.0
//
Compound: N#C/C(=C\c1ccccc1)c1ccccc1F
Class Name: 0.0
//
Compound: O=C(N/N=C\c1c(Cl)cccc1Cl)N/N=C/c1c(Cl)cccc1Cl
Class Name: 0.0
//
Compound: CC(C)(C)c1ccc(O)c(C(c2ccc([N+](=O)[O-])cc2)c2cc(C(C)(C)C)ccc2O)c1
Class Name: 1.0
//
Compound: CC(C)(C)[OH+][O-].[O-]c1ccc(Cl)cc1C=Nc1ccc(Cl)cc1[O-].[O]=[V]
Class Name: 0.0
//
Compound: OB(O)c1ccccc1C#Cc1ccccc1B(O)O
Class Name: 0.0
//
Compound: N#CSC1CCCCNC1=O (centres undefined)
Class Name: 0.0
//
Compound: CN(C)Cc1cccc(CN(C)C)[c]1[Sn]([Br])([c]1ccccc1)[c]1ccccc1
Class Name: 0.0
//
Compound: Cn1ncc2cc3c(Nc4ccc(Cl)cc4)cccc3nc21
Class Name: 0.0
//
Compound: CC1=CC2C(C(C)C)CC1C1C(=O)OC(=O)C21 (centres undefined)
Class Name: 0.0
//
Compound: CN[C@@H]1C[C@H]2O[C@@](C)([C@@H]1OC)n1c3ccccc3c3c4c(c5c6ccccc6n2c5c31)C(=O)N[C@@H]4O
Class Name: 0.0
//
Compound: CC1(C)C(C=O)=CCC1CC(N)=O (centres undefined)
Class Name: 0.0
//
Compound: O=c1ccc(N=Nc2ccccc2)ccc1O
Class Name: 1.0
//
Compound: Nc1nc2c(c(=O)[nH]1)NC(CCNc1ccc(C(=O)O)cc1)CN2 (centres undefined)
Class Name: 0.0
//
Compound: CC[C@@]1(OC(=O)CN(C)C)C(=O)OCc2c1cc1n(c2=O)Cc2cc3c(N)cccc3nc2-1
Class Name: 1.0
//
Compound: Clc1c(Cl)c(Cl)c2n[nH]nc2c1Cl
Class Name: 0.0
//
Compound: CCN(CC)CC(O)c1cc(-c2ccc(Cl)cc2)nc2c(-c3ccccc3)cccc12 (centres undefined)
Class Name: 1.0
//
Compound: N#CC(=C1C=CC(=NO)C=C1)c1ccccc1
Class Name: 1.0
//
Compound: O=[N+]([O-])c1cccc2nc3ccccc3c(NCCc3cccc[n+]3[O-])c12
Class Name: 1.0
//
Compound: Cc1ccc(CNc2ccc(Br)cc2)cc1
Class Name: 1.0
//
Compound: Cc1cc(OCc2ccccc2)ccc1[N+](=O)[O-]
Class Name: 0.0
//
Compound: On1cnc(=S)c2[nH]cnc21
Class Name: 0.0
//
Compound: CN(C)CC1CCCc2ccccc2C1=O (centres undefined)
Class Name: 0.0
//
Compound: Cc1ccc(S(=O)(=O)Nc2ccc3c(c2)C(O)c2ccccc2-3)cc1 (centres undefined)
Class Name: 0.0
